Each entry below carries its recorded max response.
# Test system: KB-3-1
# Assay Name: Cytotoxic Profiling of Annotated Libraries Using Quantitative High-Throughput Screening (AID 1296008); also: nearly all actives have a fitted effect of over 60% in size; as to max response: % is scaled to controls: 0 for no effect and ±100 for the full control effect
# Study Conditions: Five cell lines viability, CellTiter-Glo ATP luminescence, 48-72 h; stronger effect = lower value
Records with an inconclusive call do not appear.

{"Test Smiles": "NC(=O)[C@H]1CCCCc2c1[nH]c1ccc(Cl)cc21", "max response (%)": 7.59}
{"Test Smiles": "C[C@]12CCC(=O)C=C1[C@@H](O)C[C@@H]1[C@@H]2[C@@H](O)C[C@@]2(C)[C@H]1CC[C@]2(O)C(=O)CO", "max response (%)": 8.45}
{"Test Smiles": "Cc1[nH]cnc1C1CCN(c2nc3cccc4c3n2CCC4=O)CC1", "max response (%)": 2.43}

----------
# Assay Name: qHTS profiling for inhibitors of Plasmodium falciparum proliferation (AID 504749); also: nearly all actives have a fitted effect of over 60% in size;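 as to activity, negative = inhibition: 0% = DMSO vehicle and full inhibition = artemisinin control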
# Study Conditions: P. falciparum in erythrocytes, SYBR Green DNA, 72 h; at 28.7 µM (top of the series); parasite line B
Results filed as inconclusive are left out. Peptide text beside a SMILES is read from it.

{"Molecule": "CC1=C(/C=C/C(C)=C/C=C/C(C)=C/C=C/C=C(C)/C=C/C=C(C)/C=C/C2=C(C)CCCC2(C)C)C(C)(C)CCC1", "Endpoint Unit": "%", "activity, negative = inhibition": -0.801}
{"Molecule": "CCCCCCC(O)C/C=C/CCCCCCCC(=O)O (stereo not drawn)", "Endpoint Unit": "%", "activity, negative = inhibition": 3.04}
{"Molecule": "Cc1cn([C@H]2C[C@H](O)[C@@H](CO)O2)c(=O)[nH]c1=O", "Endpoint Unit": "%", "activity, negative = inhibition": -3.41}
{"Molecule": "CCCCC/C=C\\C/C=C\\CCCCCCCC(=O)O", "Endpoint Unit": "%", "activity, negative = inhibition": 5.9}
{"Molecule": "C=CCSSSCC=C", "Endpoint Unit": "%", "activity, negative = inhibition": 3.6}
{"Molecule": "CCC(=O)NCCC1CCc2ccc3c(c21)CCO3 (stereo not drawn)", "Endpoint Unit": "%", "activity, negative = inhibition": 0.538}
{"Molecule": "CC(=O)N[C@@H](CC(=O)O)C(=O)N[C@@H](CCC(=O)O)C(=O)O (Ac-Asp-Glu-OH)", "Endpoint Unit": "%", "activity, negative = inhibition": 14.8}
{"Molecule": "Oc1cc(O)c2c(c1)OC(c1ccc(O)c(O)c1)C(O)C2 (stereo not drawn)", "Endpoint Unit": "%", "activity, negative = inhibition": -13.8}

----------
# Test system: Zika virus NS2B-NS3 protease (linked construct)
# Assay Name: 384 well plate NINDS Rhodamine confirmatory qHTS for Zika virus inhibitors (AID 1347164);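 also: fluorescence from protease cleavage of Ac-LKRR-rhodamine 110 substrate; nearly all actives have a fitted effect of over 65% in size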
# Study Conditions: rhodamine-110 peptide substrate fluorescence; series mostly up to 100 µM
Records with an inconclusive call do not appear. Activity calls are given as the source filed them. The call rests on the fitted dose curve; in most records, active means well fitted inhibition curve with a large enough effect; inconclusive means small, poorly fitted or top-dose-only effect; inactive means no such curve, though single readings can be large or run the other way.
Classes used: YES = active, NO = inactive

{"Molecule": "Nc1c(N=Nc2ccc(-c3ccc(N=Nc4cc(S(=O)(=O)O)c5ccccc5c4N)cc3)cc2)cc(S(=O)(=O)O)c2ccccc12", "Answer Label": "YES"}
{"Molecule": "O=C(O)c1cc(O)c2cccc(O)c2c1O[C@@H]1O[C@H](CO)[C@@H](O)[C@H](O)[C@H]1O", "Answer Label": "YES"}
{"Molecule": "O=C(O)c1cnn(-c2nc3cc(OC(F)(F)F)c(Cl)cc3[nH]2)c1", "Answer Label": "YES"}
{"Molecule": "CC(C)N=c1cc2n(-c3ccc(Cl)cc3)c3ccccc3nc-2cc1Nc1ccc(Cl)cc1", "Answer Label": "NO"}
{"Molecule": "N#CC1C(=O)Nc2scc(-c3ccc(-c4ccccc4O)cc3)c2C1=O (stereo not given)", "Answer Label": "YES"}
{"Molecule": "CCOc1c2c(c(OCC)c3ccccc13)C(=O)N(c1ccc(CC(=O)NS(=O)(=O)c3ccccc3)cc1)C2", "Answer Label": "NO"}
{"Molecule": "CCOc1ccc(-c2ccc(Cn3c(CC(C)(C)C(=O)O)c(SC(C)(C)C)c4cc(OCc5ccc(C)cn5)ccc43)cc2)cn1", "Answer Label": "NO"}
{"Molecule": "CC1(C)CCC(C)(C)c2cc3c(cc21)Sc1ccccc1N=C3c1ccc(C(=O)O)cc1", "Answer Label": "YES"}
{"Molecule": "O=S(=O)(O)c1cc(O)c2c(N=Nc3ccc(Nc4ccccc4)c4c(S(=O)(=O)O)cccc34)cc(S(=O)(=O)O)cc2c1", "Answer Label": "YES"}
{"Molecule": "COc1cccc(-n2nc(C(=O)O)cc2-c2ccc(C3CCCCC3)c(Cl)c2)c1", "Answer Label": "YES"}

----------
# System: KB-3-1
# Assay Name: Cytotoxic Profiling of Annotated Libraries Using Quantitative High-Throughput Screening (AID 1296008); also: nearly all actives have a fitted effect of over 60% in size
# Study Conditions: Five cell lines viability, CellTiter-Glo ATP luminescence, 48-72 h
Results filed as inconclusive are left out. The source made the active and inactive calls. Calls follow the shape of the dose curve; as a rule, active = well fitted inhibition curve with a large enough effect; inconclusive = small, poorly fitted or top-dose-only effect; inactive = flat fitted curve, though single readings scatter.
Classes used: 1.0 (active), 0.0 (inactive)

{"Compound": "CC(C)[C@@H](C)/C=C/[C@@H](C)[C@H]1CC[C@H]2C3=CC=C4C[C@@H](O)CC[C@]4(C)[C@H]3CC[C@]12C", "Answer Label": 0.0}
{"Compound": "CC(CCC1C(C(=O)O)=CC(=O)CC1(C)C)O[C@@H]1O[C@H](CO)[C@@H](O)[C@H](O)[C@H]1O (some centres undefined)", "Answer Label": 0.0}
{"Compound": "CCn1c2ccccc2c2cc(CNC)ccc21", "Answer Label": 0.0}
{"Compound": "O=C1C(=O)c2ncccc2-c2cccnc21", "Answer Label": 1.0}
{"Compound": "Cn1c(=O)c2nc(/C=C/c3cccc(Cl)c3)n(C)c2n(C)c1=O", "Answer Label": 0.0}
{"Compound": "CC1(C)OC(=O)C(OCC2CC2)=C1c1ccc(S(C)(=O)=O)cc1", "Answer Label": 0.0}
{"Compound": "C/C(=C\\CO)CC/C=C(\\C)C(=O)O[C@H]1[C@H](OC2OC=C(C(=O)O)C3CCC(C)(O)C23)O[C@H](CO)[C@@H](O)[C@@H]1O (some centres undefined)", "Answer Label": 0.0}
{"Compound": "O=c1c2cccnc2n(-c2cccc([N+](=O)[O-])c2)c(=O)n1Cc1ccncc1", "Answer Label": 0.0}
{"Compound": "CC1=C2C(=O)O[C@@H](c3ccoc3)[C@]2(C)CCC1", "Answer Label": 0.0}

----------
# Tested on: CP266
# Assay Name: qHTS profiling for inhibitors of Plasmodium falciparum proliferation (AID 504749); also: nearly all actives have a fitted effect of over 60% in size
# Study Conditions: P. falciparum in erythrocytes, SYBR Green DNA, 72 h; series mostly up to 28.7 µM
Inconclusive results are not listed. Active and inactive are the calls of the source. Calls follow the shape of the dose curve; as a rule, active = well fitted inhibition curve with a large enough effect; inconclusive = small, poorly fitted or top-dose-only effect; inactive = flat fitted curve, though single readings scatter.
Classes used: active, inactive

{"Compound": "C#C[C@]1(O)CC[C@H]2[C@@H]3CCC4=CCCC[C@@H]4[C@H]3C(=C)C[C@@]21CC", "Tested Target": "CP266", "Answer Label": "inactive"}
{"Compound": "C=CCSSSCC=C", "Tested Target": "CP266", "Answer Label": "inactive"}
{"Compound": "COCC(=O)Nc1cc(Sc2ccccc2)ccc1N=C(NC(=O)OC)NC(=O)OC", "Tested Target": "CP266", "Answer Label": "inactive"}
{"Compound": "C[C@]12CCC(=O)C=C1CC[C@@H]1[C@@H]2[C@@H](O)C[C@@]2(C)[C@H]1CC[C@]2(O)C(=O)COP(=O)(O)O", "Tested Target": "CP266", "Answer Label": "inactive"}
{"Compound": "O=C(O)CCC(=O)C(=O)O", "Tested Target": "CP266", "Answer Label": "inactive"}
{"Compound": "COc1ccc2c3c1O[C@H]1C[C@@H](O)C=C[C@@]31CCN(C)C2", "Tested Target": "CP266", "Answer Label": "inactive"}
{"Compound": "Cc1cc(C(=O)NNCc2ccccc2)no1", "Tested Target": "CP266", "Answer Label": "inactive"}
{"Compound": "CCCCC(CC)COC(=O)CC(C(=O)OCC(CC)CCCC)S(=O)(=O)O (stereo not given)", "Tested Target": "CP266", "Answer Label": "inactive"}
{"Compound": "Nc1c(N=Nc2ccc(-c3ccc(N=Nc4cc(S(=O)(=O)O)c5ccccc5c4N)cc3)cc2)cc(S(=O)(=O)O)c2ccccc12", "Tested Target": "CP266", "Answer Label": "inactive"}
{"Compound": "Cc1c(C)c2c(c(C)c1O)CC[C@@](C)(CCC[C@H](C)CCC[C@H](C)CCCC(C)C)O2", "Tested Target": "CP266", "Answer Label": "inactive"}
{"Compound": "C[C@]12O[C@H](C[C@]1(O)CO)n1c3ccccc3c3c4c(c5c6ccccc6n2c5c31)CNC4=O", "Tested Target": "CP266", "Answer Label": "active"}
{"Compound": "O=CCCCC=O", "Tested Target": "CP266", "Answer Label": "inactive"}
{"Compound": "O=S(=O)(O)c1ccc2c(N=Nc3ccc(S(=O)(=O)O)c4ccccc34)c(O)c(S(=O)(=O)O)cc2c1", "Tested Target": "CP266", "Answer Label": "inactive"}
{"Compound": "Nc1c(Br)cc(Br)cc1CNC1CCC(O)CC1 (stereo not given)", "Tested Target": "CP266", "Answer Label": "inactive"}
{"Compound": "CCCCCCCCCCCCCCCC(=O)OCC(COC(=O)CCCCCCCCCCCCCCC)OC(=O)CCCCCCCCCCCCCCC", "Tested Target": "CP266", "Answer Label": "inactive"}
{"Compound": "CCCCC(C)(O)C/C=C/[C@H]1[C@H](O)CC(=O)[C@@H]1CCCCCCC(=O)OC (stereo not given in full)", "Tested Target": "CP266", "Answer Label": "inactive"}
{"Compound": "CN1C(=O)CN2CCc3ccccc3C2c2cc(Cl)ccc21 (stereo not given)", "Tested Target": "CP266", "Answer Label": "inactive"}
{"Compound": "Cc1ccccc1OCC(O)CNCCOc1ccc(C(N)=O)cc1 (stereo not given)", "Tested Target": "CP266", "Answer Label": "inactive"}
{"Compound": "C[C@@H]1CCC2[C@@H](C)[C@@H](O)O[C@@H]3O[C@@]4(C)CC[C@@H]1[C@@]23OO4 (stereo not given in full)", "Tested Target": "CP266", "Answer Label": "active"}
{"Compound": "CCCC(=O)O[C@]1(C(=O)CCl)[C@H](C)C[C@@H]2[C@H]3CCC4=CC(=O)C=C[C@]4(C)[C@@]3(F)C(=O)C[C@@]21C", "Tested Target": "CP266", "Answer Label": "active"}
